Data provenance: ChEMBL document CHEMBL1697781

Could you please report measured GGT Increase - Index Value for the items listed next?
Tested on: Hepatotoxicity; also: reference of the scale not given here
Method description: FDA HLAED, gamma-glutamyl transferase (GGT) increase
Experimental parameters: human
Answers are plain numbers.

Observe how each entry below is paired with its result.
Cc1cn([C@H]2C[C@H](N=[N+]=[N-])[C@@H](CO)O2)c(=O)[nH]c1=O [ZIDOVUDINE] ... 0.9
CCCCCc1cc(O)c2c(c1)OC(C)(C)[C@@H]1CCC(C)=C[C@@H]21 [DRONABINOL] ... 0

List GGT Increase - Index Value for every entry below, keeping the order given.
1. NCCCNCCSP(=O)(O)O [AMIFOSTINE]
2. Clc1ccc(CSC(Cn2ccnc2)c2ccc(Cl)cc2Cl)cc1 (centres undefined) [SULCONAZOLE]
3. NC(N)=Nc1nc(CSCCC(N)=NS(N)(=O)=O)cs1 [FAMOTIDINE]
4. Cc1ccc(Cl)c(Nc2ccccc2C(=O)O)c1Cl [MECLOFENAMIC ACID]
5. COc1ccc2cc([C@H](C)C(=O)O)ccc2c1 [NAPROXEN]
6. Cc1c(OCC(F)(F)F)ccnc1C[S+]([O-])c1nc2ccccc2[nH]1 (centres undefined) [LANSOPRAZOLE]
7. N#Cc1cc(NC(=O)C(=O)O)c(Cl)c(NC(=O)C(=O)O)c1 [LODOXAMIDE]

A.
1. 0
2. 0
3. 0.4
4. 0
5. 0.1
6. 1.1
7. 0

List GGT Increase - Index Value for every entry below, keeping the order given.
1. CC[C@H]1OC(=O)[C@H](C)[C@@H](O[C@H]2C[C@@](C)(OC)[C@@H](O)[C@H](C)O2)[C@H](C)[C@@H](O[C@@H]2O[C@H](C)C[C@H](N(C)C)[C@H]2O)[C@](C)(O)C[C@@H](C)[C@@H]2N[C@@H](COCCOC)O[C@H]([C@H]2C)[C@]1(C)O [DIRITHROMYCIN]
2. CC(Cc1ccc(O)c(O)c1)C(C)Cc1ccc(O)c(O)c1 (centres undefined) [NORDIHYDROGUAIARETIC ACID]
3. NCCCC[C@H](N[C@@H](CCc1ccccc1)C(=O)O)C(=O)N1CCC[C@H]1C(=O)O [LISINOPRIL ANHYDROUS]
4. COC1=CC(=O)C[C@@H](C)[C@]12Oc1c(Cl)c(OC)cc(OC)c1C2=O [GRISEOFULVIN]
5. CC(=O)OCC1=C(C(=O)O)N2C(=O)[C@@H](NC(=O)CSc3ccncc3)[C@H]2SC1 [CEPHAPIRIN]

A.
[2.7, 0, 1, 5.5, 0]
